Overview of recorded pKd for various binders
biological target: Recombinant human his-tagged IGF 1R extracellular domain protein (human) (UniProt P08069); assay: SPR, captured IgG, IGF-1R ECD-his analyte, dissociation pH 6
pKd: −log10 of the molar value.

binder	pKd
VRDN-02533 (antibody, V domains shown) VH: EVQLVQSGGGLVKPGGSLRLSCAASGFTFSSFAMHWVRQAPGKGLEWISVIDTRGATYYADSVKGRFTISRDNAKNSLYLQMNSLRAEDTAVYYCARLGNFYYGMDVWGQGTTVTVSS VL: EIVLTQSPGTLSVSPGERATLSCRASQSHGSSLHWYQQKPGQAPRLLIKYASQSLSGIPDRFSGSGSGTDFTLTISRLEPEDFAVYYCHQSSRLPHTFGQGTKVEIK	10.31
VRDN-02563 (antibody, V domains shown) VH: EVQLVQSGGGLVKPGGSLRLSCAASGFTFSSFAMHWVRQAPGKGLEWISVIHTRGATYYADSVKGRFTISRDNAKNSLYLQMNSLRAEDTAVYYCARLGNFYYHMDVWGQGTTVTVSS VL: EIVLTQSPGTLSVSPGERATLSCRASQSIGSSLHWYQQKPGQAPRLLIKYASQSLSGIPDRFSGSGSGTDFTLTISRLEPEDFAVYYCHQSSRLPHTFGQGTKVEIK	8.46
VRDN-02541 (antibody, V domains shown) VH: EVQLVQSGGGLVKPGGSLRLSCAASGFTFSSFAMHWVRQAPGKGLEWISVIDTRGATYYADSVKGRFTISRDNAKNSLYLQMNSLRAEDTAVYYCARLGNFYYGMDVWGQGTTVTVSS VL: EIVLTQSPGTLSVSPGERATLSCRASQSIGSSLHWYQQKPGQAPRLLIKYAHQSLSGIPDRFSGSGSGTDFTLTISRLEPEDFAVYYCHQSSRLPHTFGQGTKVEIK	10.55
